// reported protein stability index per item
# protocolDetails: protein stability index of a GFP-peptide fusion (yeast GPS) (PSI 1-4); higher = more stable; sorted into four equal gates, so the index is relative within each strain
# conditionSet: pdr5∆

IAKTFTVDVSSPTENGV [RPL22A] : 3

Request: Request the reported protein stability index associated with AKSISTSAKEPSENDVF [RPO31]
Response: 3.06

Request: Request the reported protein stability index associated with QQQRRQLTPQQQQLVNQ [GAL11]
Response: 3

====

# protocolDetails: protein stability index of a GFP-peptide fusion (yeast GPS) (PSI 1-4); higher = more stable; sorted into four equal gates, so the index is relative within each strain
# conditionSet: san1∆
propertyLabel: protein stability index
Enter the number alone.

In the examples that follow, each entry is paired with its recorded protein stability index.
SQTTLVQFGLNEETFTV [ARP9] : 2.77
SFLHVDDKLAYIRVNHA [POP8] : 2.21

Proceeding to the next sequence to report its protein stability index.
Request: Request the reported protein stability index associated with ADKPFTRLTAYQELAYR [YML031W/NDC1]
Response: 3.06

====

# protocolDetails: protein stability index of a GFP-peptide fusion (yeast GPS) (PSI 1-4); higher = more stable; sorted into four equal gates, so the index is relative within each strain
# conditionSet: san1∆
Lab note: compare protein stability index against 3. Equal or greater, write 1 (yes). Smaller, write 0 (no).

Worked examples, 10 sequences total:
LQLASLQQKQRDLILKK [SMC3] : 1 (yes)
LFEQIGIRIKGKIVGFD [SME1] : 0 (no)
GTGLQSYLEERERQVNE [RPC53] : 1 (yes)
EFDEQYGTRPLVLPPVV [SNF2] : 0 (no)
RKVVFPFQLDVADMLTP [UBP6] : 0 (no)
AGAVAPEDIWVRAVNTG [RPP0] : 0 (no)
QRLVTPQRLQRKRHQRA [RPS6A] : 1 (yes)
LPSHIISTSDVTRIINS [RPL4A] : 0 (no)
NGLLNEISRLKTSLSIK [SMC2] : 1 (yes)
DGKLIDISGTMSGGGNH [SMC4] : 1 (yes)

Request: Decide: protein stability index of ETHETNISNAKLANFFS [YAR002W/NUP60] >= 3?
Response: 1 (yes)

Request: Decide: protein stability index of LYQIDYLGTKVELPYGA [PRE1] >= 3?
Response: 0 (no)

Request: Decide: protein stability index of VTKGGTVENPLRNWEEL [PRP28] >= 3?
Response: 1 (yes)

Request: Decide: protein stability index of LLERGRLRKRVTIIPLD [SMC2] >= 3?
Response: 0 (no)

====

# protocolDetails: protein stability index of a GFP-peptide fusion (yeast GPS) (PSI 1-4); higher = more stable; sorted into four equal gates, so the index is relative within each strain
# conditionSet: doa10∆
Lab note: compare protein stability index against 3. Equal or greater, write y. Smaller, write n.

VRELGILCIFEGEKCHP [SEC65] : n
RGFFHLNEALLQCPMLY [CSN12] : n
NCPHSDSTQLLETILEE [SSN2] : n

Request: Decide: protein stability index of KDVLAQTSVTTNFNEIT [SWP82] >= 3?
Response: n

Request: Decide: protein stability index of DPEKDSINATALAFGYV [SIN4] >= 3?
Response: n

Request: Decide: protein stability index of LKSESATSQYLKQDLKK [YGL172W/NUP49] >= 3?
Response: n

Request: Decide: protein stability index of DNIYRNLQKIDKDSEEL [MED4] >= 3?
Response: n

Request: Decide: protein stability index of IYISNLVRSIIAFDDLI [RPN8] >= 3?
Response: n

Request: Decide: protein stability index of PSFGKRHNKSHTLCNRC [RPL37A] >= 3?
Response: n

Request: Decide: protein stability index of YQTRARQKARTDAHTPL [RPR2] >= 3?
Response: y

Request: Decide: protein stability index of NQLLAALVAYTPTDVIG [RRP6] >= 3?
Response: n

Request: Decide: protein stability index of VQESGNIDYQKGLLIWR [GRR1] >= 3?
Response: y

Request: Decide: protein stability index of DRTQDRADVEDESNDID [RPC37] >= 3?
Response: y
